Below is a list of entries, each paired with its recorded Emax (fold induction over background), PC3 (fold over background) value.
tested.target: CD137 on Jurkat reporter cells (Promega kit CS196005) (UniProt Q07011)
Sequence (Q07011 24-255 limits assumed): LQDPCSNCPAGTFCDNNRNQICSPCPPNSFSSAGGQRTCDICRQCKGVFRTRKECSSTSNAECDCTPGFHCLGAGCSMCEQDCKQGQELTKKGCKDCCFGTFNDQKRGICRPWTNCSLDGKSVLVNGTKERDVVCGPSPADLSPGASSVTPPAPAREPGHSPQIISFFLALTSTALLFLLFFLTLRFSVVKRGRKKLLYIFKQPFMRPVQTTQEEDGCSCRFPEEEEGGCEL
procedure.text: cell-based or functional assay
Starred links: 1 amine or outer side, 2 acyl side, 3 side chain; linkers in the order of their positions; H or OH if unused. Positions of bridges follow the written chain, without caps; N, C: chain ends. Non-standard residues stand in square brackets, D forms with d. Chains are numbered I, II in the order given. No end group written: not given here. *: point of attachment. TATA = O=C(CC[*:1])N1CN(C(=O)CC[*:2])CN(C(=O)CC[*:3])C1; d1Nal = N[C@H](Cc1cccc2ccccc12)C(=O)O; Hyp = O=C(O)[C@@H]1C[C@@H](O)CN1; hArg = N=C(N)NCCCC[C@H](N)C(=O)O; tBuAla = CC(C)(C)C[C@H](N)C(=O)O; Cba = N[C@@H](CC1CCC1)C(=O)O; dK(PYA) = not defined here; Nle = CCCC[C@H](N)C(=O)O; Pent4ynoyl = C#CCCC(=O)*; Mpa = O=C(O)CCS
Just the number, please, no unit after it.

May I ask what Emax (fold induction over background), PC3 (fold over background) has been recorded for BCY13138 (linker I:4-I:11-I:18, II:1-II:8-II:15 via TATA (inferred); not fully specified (N-terminus); reading uncertain; also: linker joins chain 1 to two chain 2 copies via PYA triazoles) peptide 1: A[hArg]DC[Hyp]LVNPLCLEP[dD]WTC peptide 2: [Mpa][tBuAla]PE[dK(PYA)]PYCFADPY[Nle]C ?
32.6

May I ask what Emax (fold induction over background), PC3 (fold over background) has been recorded for BCY13270 (linker I:4-I:11-I:18, II:1-II:8-II:15 via TATA; not fully specified (N-terminus, bridges); also: linker joins chain 1 to two chain 2 copies via PYA triazoles) peptide 1: A[hArg]DC[Hyp]LVNPLCLHP[d1Nal]W[hArg]C peptide 2: Ac-C[tBuAla]PE[dK](Pent4ynoyl)PYCFADPY[Nle]CA ?
42.5

May I ask what Emax (fold induction over background), PC3 (fold over background) has been recorded for BCY13052 (linker I:4-I:11-I:18, II:1-II:8-II:15 via TATA (inferred); not fully specified (N-terminus); also: chain 2: linker at dLys(PYA)4 (place not given here by letters), linker N-(acid-PEG3)-N-bis(PEG3-azide) joins N-terminus of chain 1 to dLys(PYA) of chain 2) peptide 1: [dA][hArg]DC[Hyp][Cba]VNPLCLEP[dD]WTC[dA] peptide 2: Ac-C[tBuAla]PE[dK](Pent4ynoyl)PYCFADPY[Nle]CA ?
32.9

May I ask what Emax (fold induction over background), PC3 (fold over background) has been recorded for BCY12976 (linker I:4-I:11-I:18, II:1-II:8-II:15 via TATA; linker I:12-II:5 via N‑(acid-PEG3)‑N‑bis(PEG3-azide); reading uncertain; also: two CD137 bicycles per complex (EphA2:CD137 1:2)) peptide 1: Ac-A[hArg]DC[Hyp]LVNPLCKHP[dD]W[hArg]C peptide 2: Ac-C[tBuAla]PE[dK(PYA)]PYCFADPY[Nle]CA ?
73.2

May I ask what Emax (fold induction over background), PC3 (fold over background) has been recorded for BCY12975 (linker I:4-I:11-I:18, II:1-II:8-II:15 via TATA; linker I:6-II:5 via N‑(acid-PEG3)‑N‑bis(PEG3-azide); reading uncertain; also: two CD137 bicycles per complex (EphA2:CD137 1:2)) peptide 1: Ac-A[hArg]DC[Hyp]KVNPLCLHP[dD]W[hArg]C peptide 2: Ac-C[tBuAla]PE[dK(PYA)]PYCFADPY[Nle]CA ?
68.8
